# procedureText: Chemical stability of the compound in MEM cell culture medium after 7 days by HPLC analysis
# Format: physicochemical
# conditions: read-out: Stability
Readings of remaining at 168 h for the listed compounds
Enter your answer as a number in %; do not include the unit.

Determine its reported remaining at 168 h: `CSc1ccc(C(=O)NCCNC(=O)[C@@]2(C)CC[C@]3(C)CC[C@]4(C)C(=CC(=O)[C@@H]5[C@@]6(C)CC[C@H](O)C(C)(C)[C@@H]6CC[C@]54C)[C@@H]3C2)cc1`
99

Report remaining at 168 h, nothing else, for this compound: `CC1(C)[C@@H](O)CC[C@]2(C)[C@H]3C(=O)C=C4[C@@H]5C[C@@](C)(C(=O)NCc6ccc(C(F)(F)F)cc6)CC[C@]5(C)CC[C@@]4(C)[C@]3(C)CC[C@@H]12`
95
